Molecular target: Adenosine A2B Receptor (Homo sapiens)
Sequence (P29275 1-332): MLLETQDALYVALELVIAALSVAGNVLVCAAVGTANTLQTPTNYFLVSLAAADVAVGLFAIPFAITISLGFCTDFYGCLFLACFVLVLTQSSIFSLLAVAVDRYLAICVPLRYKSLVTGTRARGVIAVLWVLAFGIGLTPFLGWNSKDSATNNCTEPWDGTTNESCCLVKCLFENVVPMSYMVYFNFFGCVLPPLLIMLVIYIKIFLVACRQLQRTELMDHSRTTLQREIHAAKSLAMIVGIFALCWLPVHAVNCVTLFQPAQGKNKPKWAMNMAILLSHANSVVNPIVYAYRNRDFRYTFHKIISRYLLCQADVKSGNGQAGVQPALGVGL
Collected IC50 values appear next to each entry.

Illustrative cases are given below, each with its answer.
> print(dat)
                                   molecule          result
1  Cc1nc2nc(N[C@@H](C)c3cncc(F)c3)nc(C(=O)NCC3CCOCC3)c2s1 [Example 11]        < 100 nM
2  Cc1nc2nc(N[C@@H](C)c3cncc(F)c3)nc(C(=O)N3CC(NC(=O)c4ccccc4)C3)c2s1 [Example 58]        < 100 nM
3  Cc1nc2nc(N[C@@H](C)c3cccnc3)nc(C(=O)N3CC(NC(=O)C4CCC4)C3)c2s1 [Example 75]  100 to 1000 nM
4  Cc1nc2nc(N[C@@H](C)c3cncc(F)c3)nc(C(=O)NC[C@H]3CCOC3)c2s1 [Example 14]        < 100 nM
5  Cc1nc2nc(N[C@@H](C)c3cncc(F)c3)nc(C(=O)N3CC(NC(=O)NC(C)(C)C)C3)c2s1 [Example 57]        < 100 nM

IC50 lookup needed for Cc1nc2nc(N[C@@H](C)c3cncc(F)c3)nc(C(=O)N3CC[C@@H](N)C3)c2s1 [Example 42] , thanks.
100 to 1000 nM

Given CO[C@H]1CCN(C(=O)c2nc(N[C@@H](C)c3cncc(F)c3)nc3nc(C)sc23)C1 [Example 41] , state its recorded IC50.
< 100 nM

// IC50 lookup, key: Cc1nc2nc(N[C@@H](C)c3cncc(F)c3)nc(C(=O)NCCc3ccc(S(N)(=O)=O)cc3)c2s1 [Example 31]
< 100 nM
